Molecular target: mSCD3 (Mus musculus, UniProt Q99PL7, V119A)
Sequence (Q99PL7 whole entry V119A): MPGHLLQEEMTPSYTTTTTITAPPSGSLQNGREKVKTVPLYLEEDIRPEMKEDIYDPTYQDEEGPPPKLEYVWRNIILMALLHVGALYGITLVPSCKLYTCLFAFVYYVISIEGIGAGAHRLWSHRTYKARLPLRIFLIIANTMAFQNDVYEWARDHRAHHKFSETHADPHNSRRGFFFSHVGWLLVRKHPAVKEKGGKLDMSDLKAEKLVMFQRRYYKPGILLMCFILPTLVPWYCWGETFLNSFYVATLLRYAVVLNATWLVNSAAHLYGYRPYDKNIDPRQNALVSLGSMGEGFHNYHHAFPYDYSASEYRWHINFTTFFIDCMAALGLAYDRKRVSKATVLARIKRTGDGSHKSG
Assay: Conversion of saturated fatty acids to Δ9 monounsaturated fatty acids in ole1 yeast L8-14C expressing mSCD3 (GLC)
Type: cell-based
Set-up: Cloning of the full-length human and mouse SCD cDNAs: The full coding region of human SCDs; expressed in transfected cells; host or cells: Saccharomyces cerevisiae L8-14C (ole1 disruptant), vector p426GPD
Conditions: exogenous fatty acid 0.2 mM, 1% tergitol NP-40, yeast cultured 2 days (FIG. 2)
quantityMeasured: conversion of exogenous saturated fatty acid to Δ9 monounsaturated fatty acid

Sure, the documented conversion of exogenous saturated fatty acid to Δ9 monounsaturated fatty acid for CCCCCCCCCCCCC(=O)O is 32%
